Where these numbers come from: ChEMBL document CHEMBL1821583

# Subject of test: UniProt:Q99835
# Test details: Displacement of BODIPY-cyclopamine from Smo expressed in COS-1 cells after 4 to 6 hrs by Flow Cytometry analysis in presence of 2% fetal calf serum
# Format: cell-based
Outcome measure: IC50 (nM)

Please fill in: IC50 reported for `CC(C)NC1(CNC(=O)N2CCC(c3nc(-c4ccc5ccccc5n4)no3)CC2)CCCC1` = 16

Please fill in: IC50 reported for CN1CCc2ccccc2C1CNC(=O)N1CCC(c2nc(-c3ccc4ccccc4n3)no2)CC1 (configuration not stated) = 360

Please fill in: IC50 reported for `O=C(NCC1(NC2CCCCC2)CCCC1)N1CCC(c2nc(-c3ccc4ccccc4n3)no2)CC1` = 140

Please fill in: IC50 reported for `O=C(NCC1(N2CCC(F)CC2)CCCC1)N1CCC(c2nc(-c3ccc4ccccc4n3)no2)CC1` = 110

Please fill in: IC50 reported for O=C(NCC(c1ccccc1)N1CCCCC1)N1CCC(c2nc(-c3ccc4ccccc4n3)no2)CC1 (configuration not stated) = 210

Please fill in: IC50 reported for `O=C(NCC1(N2CCOCC2)CCCC1)N1CCN(c2nc(-c3ccc4ccccc4n3)no2)CC1` = 10

Please fill in: IC50 reported for `O=C(NCC1(N2CCCCC2)CCCC1)N1CCC(c2nc(-c3ccc4ccccc4n3)no2)CC1` = 46

Please fill in: IC50 reported for `O=C(NCC1(N2CCC(F)(F)CC2)CCCC1)N1CCC(c2nc(-c3ccc4ccccc4n3)no2)CC1` = 180

Please fill in: IC50 reported for `CC(C)(C)OC(=O)NC1(CNC(=O)N2CCC(c3nc(-c4ccc5ccccc5n4)no3)CC2)CCCC1` = 2000

Please fill in: IC50 reported for `O=C(NCC1(c2ccccc2)CCCC1)N1CCC(c2nc(-c3ccc4ccccc4n3)no2)CC1` = 810

P = O=C(NCC1(N2CCOCC2)CCCCC1)N1CCC(c2nc(-c3ccc4ccccc4n3)no2)CC1
Q = CC(=O)NC1(CNC(=O)N2CCC(c3nc(-c4ccc5ccccc5n4)no3)CC2)CCCC1
Looking only at measured IC50, which entry is lower, P or Q ? Answer by stating the label of the chosen item. P

###

# Subject of test: Protein smoothened (Homo sapiens, UniProt Q99835)
# Sequence (Q99835 whole entry): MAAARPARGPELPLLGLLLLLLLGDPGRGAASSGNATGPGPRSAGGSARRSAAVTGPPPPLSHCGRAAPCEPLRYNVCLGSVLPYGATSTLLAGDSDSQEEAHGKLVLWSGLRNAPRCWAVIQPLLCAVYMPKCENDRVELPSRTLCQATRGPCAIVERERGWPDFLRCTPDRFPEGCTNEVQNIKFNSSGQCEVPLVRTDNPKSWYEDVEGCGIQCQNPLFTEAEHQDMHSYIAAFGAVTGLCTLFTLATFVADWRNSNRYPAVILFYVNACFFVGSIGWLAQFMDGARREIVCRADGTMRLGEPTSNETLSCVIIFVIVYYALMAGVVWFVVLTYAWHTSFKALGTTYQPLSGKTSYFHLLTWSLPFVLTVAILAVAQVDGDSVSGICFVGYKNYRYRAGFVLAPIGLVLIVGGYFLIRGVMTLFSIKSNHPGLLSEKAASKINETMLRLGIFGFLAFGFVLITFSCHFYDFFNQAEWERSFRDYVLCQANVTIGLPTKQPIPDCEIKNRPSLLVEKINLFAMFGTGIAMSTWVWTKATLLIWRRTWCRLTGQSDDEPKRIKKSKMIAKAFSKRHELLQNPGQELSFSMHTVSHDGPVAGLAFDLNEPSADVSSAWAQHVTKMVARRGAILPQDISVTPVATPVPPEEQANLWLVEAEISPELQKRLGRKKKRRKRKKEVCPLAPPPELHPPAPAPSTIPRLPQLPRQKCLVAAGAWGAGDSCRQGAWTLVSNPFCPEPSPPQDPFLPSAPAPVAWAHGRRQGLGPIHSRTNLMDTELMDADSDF
# Test details: Displacement of BODIPY-cyclopamine from Smo expressed in COS-1 cells after 4 to 6 hrs by Flow Cytometry analysis in presence of 2% fetal calf serum
# Format: cell-based
Outcome measure: IC50 (nM)

Some compounds with known IC50 results, for comparison:
Please fill in: IC50 reported for `NC1(CNC(=O)N2CCC(c3nc(-c4ccc5ccccc5n4)no3)CC2)CCCC1` = 630

Please fill in: IC50 reported for CCN1CCCCC1CNC(=O)N1CCC(c2nc(-c3ccc4ccccc4n3)no2)CC1 (stereo not given) = 64

Please fill in: IC50 reported for `CN1CCN(C2(CNC(=O)N3CCC(c4nc(-c5ccc6ccccc6n5)no4)CC3)CCCC2)CC1` = 510

I = Cn1c(-c2noc(N3CCN(C(=O)NCC4(N5CCCCC5)CCCC4)CC3)n2)nc2ccccc21
II = O=C(NCC(c1ccncc1)N1CCOCC1)N1CCC(c2nc(-c3ccc4ccccc4n3)no2)CC1 (stereo not given)
Looking only at measured IC50, which entry is lower, I or II ? Answer by stating the label of the chosen item. I
